Collected pKd values appear next to each entry.
test_system: T1, biotinylated A93D-PNT domain (ETV6 residues 43-135, A93D, with Avitag) (human, UniProt P41212 43-135, A93D, biotin on the Avitag (~50 to 95% biotinylated))
T1 construct: ETV6, human, residues 43-135; made from the V112E construct by introducing A93D and E112V; also called biotinylated A93D-PNT domain ligand; A93D-PNT domain ligand; source: E. coli BL21 (λDE3) co-transformed with pET21a-BirA, purified (Ni-NTA, thrombin cleavage); not shown: His6, N-terminal, cleaved; Avitag, N-terminal, kept
T1 sequence (looked up): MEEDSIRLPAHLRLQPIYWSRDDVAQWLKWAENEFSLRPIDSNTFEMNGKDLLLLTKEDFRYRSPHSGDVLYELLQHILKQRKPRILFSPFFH
assay_comment: SPR; biotinylated A93D-PNT domain ligand captured on streptavidin Sensor Chip SA, PNT domain analytes flowed; Biacore X100, 25 °C, HBS-EP+ (10 mM HEPES, 150 mM NaCl, 3 mM EDTA, 0.05% v/v Tween-20, pH 7.4); analyte 0.2-60 nM, re-run at 20-6000 nM if KD > 60 nM
measurement_conditions: both partners purified
pKd: −log10 of the molar value.

{"binder": "Y104A-V112E-PNT domain (domain or fragment, human, UniProt P41212 40-125, looked up, ETV6 PNT domain, human; source: E. coli BL21 (λDE3), purified (Ni-NTA, thrombin cleavage); not shown: His6, N-terminal, cleaved) ALRMEEDSIRLPAHLRLQPIYWSRDDVAQWLKWAENEFSLRPIDSNTFEMNGKALLLLTKEDFRARSPHSGDELYELLQHILKQRK", "pKd": 7.68}
{"binder": "I59A-V112E-PNT domain (domain or fragment, human, UniProt P41212 40-125, looked up, ETV6 PNT domain, human; source: E. coli BL21 (λDE3), purified (Ni-NTA, thrombin cleavage); not shown: His6, N-terminal, cleaved) ALRMEEDSIRLPAHLRLQPAYWSRDDVAQWLKWAENEFSLRPIDSNTFEMNGKALLLLTKEDFRYRSPHSGDELYELLQHILKQRK", "pKd": 8.24}
{"binder": "K92A-V112E-PNT domain (domain or fragment, human, UniProt P41212 40-125, looked up, ETV6 PNT domain, human; source: E. coli BL21 (λDE3), purified (Ni-NTA, thrombin cleavage); not shown: His6, N-terminal, cleaved) ALRMEEDSIRLPAHLRLQPIYWSRDDVAQWLKWAENEFSLRPIDSNTFEMNGAALLLLTKEDFRYRSPHSGDELYELLQHILKQRK", "pKd": 7.21}
{"binder": "M89A-V112E-PNT domain (domain or fragment, human, UniProt P41212 40-125, looked up, ETV6 PNT domain, human; source: E. coli BL21 (λDE3), purified (Ni-NTA, thrombin cleavage); not shown: His6, N-terminal, cleaved) ALRMEEDSIRLPAHLRLQPIYWSRDDVAQWLKWAENEFSLRPIDSNTFEANGKALLLLTKEDFRYRSPHSGDELYELLQHILKQRK", "pKd": 6.47}
